Consider the following compounds; for each one, report its IC50.
tested on: P. falciparum 3D7 growth, pLDH absorbance; test: blood-stage malaria parasite growth potency – strain 3D7, dose response (AID 2305)
Quote the value and follow it with the unit of measurement.

Query: Field request: IC50 | item: CCN(CC)C(=O)c1cccc(/C=C/c2ccc(-c3c(C)[nH]c(C)c(Cl)c3=O)cc2)c1
Reply: 260 nM

Query: Field request: IC50 | item: CC1(C)CN(CCC2CCC(NC(=O)/C=C/c3ccccc3F)CC2)Cc2ccc(C#N)cc21 (stereo not drawn)
Reply: 1110 nM

Query: Field request: IC50 | item: CC(=O)Nc1csc(-c2cnc(/C=C(\C)C[C@@H]3OC[C@H](C[C@@H]4O[C@H]4[C@@H](C)[C@H](C)O)[C@@H](O)[C@H]3O)o2)c1
Reply: 180 nM

Query: Field request: IC50 | item: c1cc2nc(CCCc3nc4ccc(C5=N[C@H]6CCCC[C@H]6N5)cc4[nH]3)[nH]c2cc1C1=N[C@@H]2CCCC[C@@H]2N1
Reply: 1240 nM

Query: Field request: IC50 | item: Nc1ncnc2cc(-c3cccc(S(N)(=O)=O)c3)sc12
Reply: 150 nM

Query: Field request: IC50 | item: Oc1ccc(CCNc2nc(NCc3cccc(OCc4cccc(F)c4)c3)nc(N3CCNCC3)n2)cc1
Reply: 1340 nM

Query: Field request: IC50 | item: NC1CCCN(Cc2cccc(-c3ccc(-c4nc5ccccc5[nH]4)s3)c2)C1 (stereo not drawn)
Reply: 580 nM

Query: Field request: IC50 | item: Oc1cccc2c1CC(NCc1ccccc1)CC2 (stereo not drawn)
Reply: 890 nM

Query: Field request: IC50 | item: NC(=O)c1ccccc1Nc1nc(Nc2ccn[nH]2)ncc1Cl
Reply: 960 nM

Query: Field request: IC50 | item: O=C1CCCN1CCCNCc1ccc(-c2ccc(-c3nc4ccc(C(F)(F)F)cc4[nH]3)s2)cc1
Reply: 380 nM

Query: Field request: IC50 | item: CS(=O)(=O)NCCCNCc1ccc(-c2ccc(-c3nc4ccc(F)cc4[nH]3)s2)cc1
Reply: 810 nM

Query: Field request: IC50 | item: COc1ccc2ccccc2c1C=NNc1ccnc2cc(Cl)ccc12
Reply: 610 nM

Query: Field request: IC50 | item: NC(N)=NC(=O)Nc1cc(Br)c(Cl)c(C(F)(F)F)c1
Reply: 760 nM

====

system: P. falciparum 3D7 growth, pLDH absorbance; assay: blood-stage malaria parasite growth potency – strain 3D7, dose response (AID 2305)
Classes are defined on IC50 with ranges low band: < 600 nM; middle band: ≥ 600 nM and < 800 nM; high band: ≥ 800 nM

Query: For the record O=C(O)c1cccnc1Sc1ccc(Cl)cc1 , report the class its IC50 corresponds to.
Reply: high band

Query: For the record CCc1c(CCNCCc2cccc(CCNCCc3ccc(OC)c(OC)c3CC)c2)ccc(OC)c1OC , report the class its IC50 corresponds to.
Reply: low band

Query: For the record COc1cc2nc(N3CCC(CNC(=O)c4ccc(OC(F)(F)F)cc4)CC3)nc(N)c2cc1OC , report the class its IC50 corresponds to.
Reply: low band

Query: For the record CC(C)CCN1CCC(Oc2ccc(NC(=O)c3ccco3)cc2Cl)CC1 , report the class its IC50 corresponds to.
Reply: middle band

Query: For the record CC(=O)Nc1cccc(NC(=O)CSc2ccc(-c3nc4ccccc4[nH]3)cn2)c1 , report the class its IC50 corresponds to.
Reply: low band

Query: For the record CCOC(=O)c1ccc(NC(=O)Nc2cccc(-c3ccc(-c4nc5ccccc5[nH]4)cc3)c2)cc1 , report the class its IC50 corresponds to.
Reply: low band

Query: For the record CCOc1cc(N)c2nc3ccc([N+](=O)[O-])cc3cc2c1 , report the class its IC50 corresponds to.
Reply: low band

Query: For the record CC1(C)C(=O)Nc2ccccc2N1C(=O)CN1CCN(c2ccccc2O)CC1 , report the class its IC50 corresponds to.
Reply: high band

Query: For the record CC(=O)Nc1cccc(C(=O)Nc2ccc(-c3cccc(-c4nc5ccc(F)cc5[nH]4)c3)cc2)c1 , report the class its IC50 corresponds to.
Reply: middle band

Query: For the record COc1ccc2nccc(NN=Cc3ccccc3Cl)c2c1 , report the class its IC50 corresponds to.
Reply: middle band

Query: For the record O=C(Cc1cccc(Cl)c1)Nc1cccc(-c2c[nH]c3nc(Nc4cccc(O)c4)ncc23)c1 , report the class its IC50 corresponds to.
Reply: middle band

Query: For the record COc1ccc2c(=O)c(C3CCC(c4ccc(Cl)cc4)CC3)c(C)[nH]c2c1 (configuration not stated) , report the class its IC50 corresponds to.
Reply: middle band

Query: For the record NCc1ccc(-c2ccccc2CN(C(=O)Nc2ccccc2)C2CCN(Cc3ccccc3)CC2)cc1 , report the class its IC50 corresponds to.
Reply: high band

Query: For the record CN(CCCN(C)c1cc(NC(=O)c2ccc(F)cc2)ccn1)Cc1cccc(O)c1 , report the class its IC50 corresponds to.
Reply: high band

Query: For the record CC(C)c1ccc(NC(=S)NN=Cc2ccccn2)cc1 , report the class its IC50 corresponds to.
Reply: middle band

Query: For the record COc1cccc(-c2cc(C(=O)NC3CCC(N4CCC(c5ccccc5C)CC4)CC3)[nH]n2)c1 (configuration not stated) , report the class its IC50 corresponds to.
Reply: high band
